experimental_target: Short transient receptor potential channel 5 (Mus musculus) (UniProt Q9QX29)
procedure_text: Inhibition of mouse TRPC5 expressed in Flp-In-T-Rex-HEK293 cells assessed as reduction in […]-induced channel current at 3 uM by automated patch clamp method relative to control
Assay type: cell-based
readout: inhibition (%)

(a) Cc1ccoc1CNc1nc2ccccc2n1Cc1ccccc1
(b) c1ccc(Cn2c(NCc3cnco3)nc3ccccc32)cc1
Kindly identify the item with the lower inhibition figure among these two: a and b Give the label under which the chosen entry appears.
b
(b: 33.3%, a: 82.3%)

====

experimental_target: Short transient receptor potential channel 5 (Mus musculus)
Sequence (whole entry): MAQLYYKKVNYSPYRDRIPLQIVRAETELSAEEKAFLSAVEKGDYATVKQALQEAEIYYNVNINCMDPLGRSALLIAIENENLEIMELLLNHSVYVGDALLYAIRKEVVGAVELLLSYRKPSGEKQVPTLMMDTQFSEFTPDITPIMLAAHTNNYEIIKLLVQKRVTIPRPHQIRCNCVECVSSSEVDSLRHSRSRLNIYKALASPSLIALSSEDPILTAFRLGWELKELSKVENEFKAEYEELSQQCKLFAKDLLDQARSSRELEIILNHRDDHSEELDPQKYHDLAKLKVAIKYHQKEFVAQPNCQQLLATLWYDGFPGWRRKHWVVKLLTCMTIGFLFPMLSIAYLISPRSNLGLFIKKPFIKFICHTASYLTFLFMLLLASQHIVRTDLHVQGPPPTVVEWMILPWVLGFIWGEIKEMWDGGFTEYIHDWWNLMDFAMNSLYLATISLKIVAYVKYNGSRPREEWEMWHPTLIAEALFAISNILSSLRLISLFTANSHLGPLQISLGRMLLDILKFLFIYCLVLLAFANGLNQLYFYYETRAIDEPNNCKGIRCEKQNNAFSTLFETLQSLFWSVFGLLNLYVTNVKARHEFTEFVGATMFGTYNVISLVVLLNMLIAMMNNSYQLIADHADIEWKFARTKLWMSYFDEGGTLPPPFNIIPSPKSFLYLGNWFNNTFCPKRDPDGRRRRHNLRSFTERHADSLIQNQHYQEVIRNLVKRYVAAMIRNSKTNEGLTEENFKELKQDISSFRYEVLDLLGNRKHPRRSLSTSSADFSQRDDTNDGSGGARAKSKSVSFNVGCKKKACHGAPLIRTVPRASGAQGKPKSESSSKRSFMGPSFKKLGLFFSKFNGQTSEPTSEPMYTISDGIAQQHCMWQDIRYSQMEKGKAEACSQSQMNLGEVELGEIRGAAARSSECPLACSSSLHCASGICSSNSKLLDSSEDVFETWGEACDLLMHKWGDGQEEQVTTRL
procedure_text: Inhibition of mouse TRPC5 expressed in Flp-In-T-Rex-HEK293 cells assessed as reduction in […]-induced channel current at 3 uM by automated patch clamp method relative to control
Format: cell-based
readout: inhibition (%)

1. c1ccc(Cn2c(NCc3ccco3)nc3ccccc32)cc1; 100
2. CCCn1c(NCc2ccco2)nc2ccccc21; 81.2
3. Fc1ccc(Cn2c(NCc3ccco3)nc3ccccc32)c(F)c1; 87
4. c1ccc(Cn2c(NCc3cccnc3)nc3ccccc32)cc1; 12
5. Cc1nnc(CNc2nc3ccccc3n2Cc2ccccc2)s1; 30

(P) O=C(Nc1nc2ccccc2n1Cc1ccccc1)c1ccco1
(Q) c1coc(CNc2nc3ccccc3n2CC2CCC2)c1
Kindly identify the item with the lower inhibition figure among these two: P and Q Give the label under which the chosen entry appears.
P
(P: 38.5%, Q: 117%)

(I) N#Cc1ccc(Cn2c(NCc3ccco3)nc3ccccc32)cc1
(II) c1ccc(Cn2c(Nc3ccccc3)nc3ccccc32)cc1
(III) c1ccc(CNc2nc3ccccc3n2Cc2ccccc2)cc1
Output the entries ranked by inhibition from maximum down to minimum. Response format: the labels, sorted as the prompt asks.
I, III, II

(I) c1ccc(Cn2c(NCc3ccccn3)nc3ccccc32)cc1
(II) c1ccc(Cn2c(NCc3ccco3)nc3cccnc32)cc1
Kindly identify the item with the lower inhibition figure among these two: I and II Give the label under which the chosen entry appears.
I
